test: Kinetic solubility in water and bio-relevant media (SGF, FaSSIF, FeSSIF) at 37° C.; assay type: physicochemical; details: SGF, 37° C., 4 hrs; residual solids by XRPD
Structures can show the parent of a compound that is named as a salt.
test readout: FC: Form change

# compound, result value
records = [
    ("N#Cc1ccc(COc2cccc(C3CCN(Cc4nc5ccc(C(=O)O)cc5n4Cc4cncs4)CC3)n2)c(F)c1 [Meglumine salt Type A]", "Yes"),
    ("N#Cc1ccc(COc2cccc(C3CCN(Cc4nc5ccc(C(=O)O)cc5n4Cc4cncs4)CC3)n2)c(F)c1 [Potassium salt Type A]", "Yes"),
    ("N#Cc1ccc(COc2cccc(C3CCN(Cc4nc5ccc(C(=O)O)cc5n4Cc4cncs4)CC3)n2)c(F)c1 [Fumarate Type A]", "No"),
    ("N#Cc1ccc(COc2cccc(C3CCN(Cc4nc5ccc(C(=O)O)cc5n4Cc4cncs4)CC3)n2)c(F)c1 [Tris salt Type C]", "Yes"),
    ("N#Cc1ccc(COc2cccc(C3CCN(Cc4nc5ccc(C(=O)O)cc5n4Cc4cncs4)CC3)n2)c(F)c1 [Freeform Type C]", "No"),
]

====

experiment: Kinetic solubility in water and bio-relevant media (SGF, FaSSIF, FeSSIF) at 37° C.; format: physicochemical; conditions: H2O, 37° C., 24 hrs; residual solids by XRPD
Structures can show the parent of a compound that is named as a salt.
test readout: FC: Form change

# compound, result value
records = [
    ("N#Cc1ccc(COc2cccc(C3CCN(Cc4nc5ccc(C(=O)O)cc5n4Cc4cncs4)CC3)n2)c(F)c1 [Potassium salt Type A]", "Yes"),
    ("N#Cc1ccc(COc2cccc(C3CCN(Cc4nc5ccc(C(=O)O)cc5n4Cc4cncs4)CC3)n2)c(F)c1 [Tris salt Type C]", "Yes"),
    ("N#Cc1ccc(COc2cccc(C3CCN(Cc4nc5ccc(C(=O)O)cc5n4Cc4cncs4)CC3)n2)c(F)c1 [Freeform Type C]", "No"),
    ("N#Cc1ccc(COc2cccc(C3CCN(Cc4nc5ccc(C(=O)O)cc5n4Cc4cncs4)CC3)n2)c(F)c1 [Meglumine salt Type A]", "Yes"),
    ("N#Cc1ccc(COc2cccc(C3CCN(Cc4nc5ccc(C(=O)O)cc5n4Cc4cncs4)CC3)n2)c(F)c1 [Fumarate Type A]", "No"),
]

====

experiment: Solubility of Meglumine salt Type A in SGF and FaSSIF at 37° C. with adjusting pH to that of the blank medium; format: physicochemical; conditions: pH 6.5, thermodynamic from solid; FaSSIF, 37° C., pH adjusted to 6.5, 2 hrs; read-out: S (solubility)
Where a name gives a salt, the structure may show the parent alone.
test readout: solubility at 2 h (µg/mL)

# molecule, test readout, units text, result value
records = [
    ("N#Cc1ccc(COc2cccc(C3CCN(Cc4nc5ccc(C(=O)O)cc5n4Cc4cncs4)CC3)n2)c(F)c1 [Meglumine salt Type A]", "solubility at 2 h", "µg/mL", 14),
]

====

test: Kinetic solubility in water and bio-relevant media (SGF, FaSSIF, FeSSIF) at 37° C.; type: physicochemical; conditions: water, 37 °C, thermodynamic from solid, H2O, throughout the 24-hour process
Where a name gives a salt, the structure may show the parent alone.

# compound, solubility
measured = [
    ("N#Cc1ccc(COc2cccc(C3CCN(Cc4nc5ccc(C(=O)O)cc5n4Cc4cncs4)CC3)n2)c(F)c1 [Meglumine salt Type A]", "≥ 7000 µg/mL"),
]
